Recorded growth inhibition by entry
# measurementNotes: NCI Yeast Anticancer Drug Screen. Data for the mlh1 rad18 strain (AID 175)
# runParameters: S. cerevisiae mlh1 rad18 strain growth inhibition; at 50.0 µM; hits give high values
This is part of a sample that, as a whole, favours compounds with a hit. Of some 79,000 tested, about 15% had one in any assay.
Give the quantity in %, number only.

# input Please supply the value of reported growth inhibition for the item Oc1ccccc1C(c1ccccc1O)C(Cl)(Cl)Cl
# output 98

Next:
# input Specify growth inhibition for C[CH2][Ge]([CH2]C)([CH2]C)[O]C(=O)C([O][Ge]([CH2]C)([CH2]C)[CH2]C)c1ccccc1 (centres undefined) and stop.
# output 89.5

# input Fill in reported growth inhibition for this entry: Oc1c(Br)cc(Cl)cc1C(c1cc(Cl)cc(Br)c1O)C(Cl)(Cl)Cl
# output 90.8

# input Note growth inhibition for the compound shown: Oc1c(I)cc(Cl)c2cccnc12
# output 98

# input Give reported growth inhibition value for COc1ccc(C(=O)Oc2c(Br)cc(Br)cc2Br)cc1
# output 7.75

# input Give the measured growth inhibition for CC#CS(=O)(=O)c1ccccc1
# output 66.6

# input Using known records, supply growth inhibition for Cc1ccc2c(ccc3c[n+]4c5ccccc5ccc4n32)c1
# output 99.2

# input Determine its reported growth inhibition: CCOC(=O)c1c(Cl)c(CC)c(N=[N+]=[N-])n2c1nc1ccccc12
# output 64.6

# input Determine its reported growth inhibition: CC(C)(C)C(=O)/C=C/c1ccc2ccccc2n1
# output 77.8

# input Specify measured growth inhibition for O=S=C(c1ccccc1)N(Cc1ccccc1)Cc1ccccc1 .
# output 94.2

# input Annotate the compound CCN(CC)CCOc1ccc(/C=C/c2ccccc2)cc1 with its measured growth inhibition.
# output 78

# input In one line, give reported growth inhibition of the entry CCCCc1ccc2nc(C)cc(N/N=C/c3ccc4c(c3)OCO4)c2c1 .
# output 29.8

# input Answer with the recorded growth inhibition for the compound listed here: CCNC(=S)NNC(=S)NNc1ccccc1
# output 38.5

# input Could you please provide reported growth inhibition for O=C(Nc1cccc(Br)c1)Oc1ccc(Cl)c2cccnc12 ? Thanks!
# output 90.8

# input Give recorded growth inhibition. CC(C)c1ccc(S(=O)(=O)c2ccc([N+](=O)[O-])cc2[N+](=O)[O-])cc1
# output 96.2

# input // Input: Cc1c2c(c(O)c3c(O)cccc13)C(=O)C1(O)C(=O)C(C(N)=O)C(O)C(N(C)C)C1C2 (centres undefined) . Output its growth inhibition only.
# output 99.1

# input Note down growth inhibition recorded for Cc1ccc(C2SCc3nc4ccccc4n32)cc1 (centres undefined)
# output 48.9
